# Tested on: AA1029
# assay remarks: qHTS profiling for inhibitors of Plasmodium falciparum proliferation (AID 504749); further: nearly all actives have a fitted effect of over 60% in size; further: potency means the concentration at half of the fitted maximal effect
# test settings: P. falciparum in erythrocytes, SYBR Green DNA, 72 h; series mostly up to 28.7 µM
Inconclusive results are not listed. The source made the active and inactive calls. The call rests on the fitted dose curve; in most records, active means well fitted inhibition curve with a large enough effect; inconclusive means small, poorly fitted or top-dose-only effect; inactive means flat fitted curve, though single readings scatter.
reported endpoint: Potency

Worked examples follow.
molecule=CC(C)(C)C(=O)OCOC(=O)[C@@H]1N2C(=O)[C@@H](N=CN3CCCCCC3)[C@H]2SC1(C)C value_measured=inactive
molecule=CC1=C(/C=C/C(C)=C/C=C/C(C)=C/C=C/C=C(C)/C=C/C=C(C)/C=C/C2=C(C)CCCC2(C)C)C(C)(C)CCC1 value_measured=inactive
molecule=IC(I)I value_measured=inactive
molecule="COC(=O)[C@H]1[C@H]2CC3c4[nH]c5ccccc5c4CCN3C[C@@H]2CC[C@@H]1O (stereo not given in full)" value_measured=inactive
molecule=Clc1cc(Cl)c(OCC#CI)cc1Cl value_measured="12.6 µM (active)"
molecule=COCC(=O)Nc1cc(Sc2ccccc2)ccc1N=C(NC(=O)OC)NC(=O)OC value_measured=inactive

Exercise: So what does the record say about Potency for `CCCCCCCCCCCC[n+]1ccc2ccccc2c1` ?
Solution: 1.26 µM (active)

Exercise: So what does the record say about Potency for `CN=C(NC#N)Nc1ccc(C2=NNC(=O)C[C@@H]2C)cc1` ?
Solution: inactive

Exercise: So what does the record say about Potency for `O=S(=O)(O)O` ?
Solution: inactive

Exercise: So what does the record say about Potency for `O=S(=O)(O)c1cc(O)c2c(N=Nc3ccc(Nc4ccccc4)c4c(S(=O)(=O)O)cccc34)cc(S(=O)(=O)O)cc2c1` ?
Solution: inactive

---

# Tested on: Zika virus NS2B-NS3 protease (unlinked complex)
# assay remarks: Primary screen GU Rhodamine qHTS for Zika virus inhibitors: Unlinked NS2B-NS3 protease assay (AID 1347159); further: nearly all actives have a fitted effect of over 60% in size
# test settings: Recombinant ZIKV NS2B-NS3 protease, Rhodamine110 substrate fluorescence; series mostly up to 107 µM
Inconclusive results are not listed. Active and inactive are the calls of the source. Calls follow the shape of the dose curve; as a rule, active = well fitted inhibition curve with a large enough effect; inconclusive = small, poorly fitted or top-dose-only effect; inactive = no such curve, though single readings can be large or run the other way. Where a SMILES comes first, the peptide text is derived from it. Bridges are numbered along the chain shown (N, C = ends). [ ]: non-standard residue; d: D form. The star is where a group is joined. X1 = CCC(C)C(N)C1=NC(C(=O)*)CS1; dOrn = NCCC[C@@H](N)C(=O)O
Your reply should match one of these outcome classes. active, inactive

Exercise: How did this test come out for `COc1cc(/C=C/c2cc(O)cc(O[C@@H]3O[C@H](CO)[C@@H](O)[C@H](O)[C@H]3O)c2)ccc1O` ?
Solution: inactive

Exercise: How did this test come out for CC1C(=O)CC2C3C(O)CC(C(=O)O)C12CC3(C)C (configuration not stated) ?
Solution: inactive

Exercise: How did this test come out for CCC(C)C(N)C1=NC(C(=O)N[C@@H](CC(C)C)C(=O)N[C@H](CCC(=O)O)C(=O)N[C@H](C(=O)N[C@H]2CCCCNC(=O)[C@H](CC(N)=O)NC(=O)[C@@H](CC(=O)O)NC(=O)[C@H](Cc3cnc[nH]3)NC(=O)[C@@H](Cc3ccccc3)NC(=O)[C@H]([C@@H](C)CC)NC(=O)[C@@H](CCCN)NC2=O)[C@@H](C)CC)CS1 (some centres not stated) (X1-L[dE]IK[dOrn]I[dF]H[dD]N; lactam 4-C) ?
Solution: inactive

Exercise: How did this test come out for CC1C/C=C/C=C\CCCCC(O)C/C=C/C(=O)O1 (configuration not stated) ?
Solution: active

Exercise: How did this test come out for N#CC1C(=O)Nc2scc(-c3ccc(-c4ccccc4O)cc3)c2C1=O (configuration not stated) ?
Solution: active

Exercise: How did this test come out for `CC(C)c1nc(N(C)S(C)(=O)=O)nc(-c2ccc(F)cc2)c1/C=C/[C@@H](O)C[C@@H](O)CC(=O)O` ?
Solution: inactive

Exercise: How did this test come out for `CN1CCC(c2c[nH]c3ccc(NC(=O)c4ccc(F)cc4)cc23)CC1` ?
Solution: inactive
